- Test system: human colorectal carcinoma cells (HCT116 ATCC CCL-247)
- method-notes: Cytotoxicity assay (Alamar blue), HCT116
- Assay type: cell-based
- test-parameters: Homo sapiens, HCT-116; 72 h incubation; average ± SD; Inactive = inhibition above 300 μM; read-out: IC50 HCT (cancer cell line)
Threshold check on IC50: strictly below 80 µM is true (1); on or above 80 µM is false (0).

Input CCCCCCCCCC(=O)N(Cc1ccc(OC)c(OC)c1)c1ccc(B2OC(C)(C)C(C)(C)O2)cc1 ; condition: IC50 strictly below 80 µM. Does it hold? true (1)

* * *

- Tested on: human foreskin BJ fibroblast cells (ATCC CRL-2522)
- method-notes: Cytotoxicity assay (Alamar blue), BJ
- Format: cell-based
- test-parameters: Homo sapiens, Fibroblast; 24 h incubation; average ± SD; Inactive = inhibition above 300 μM; read-out: IC50 BJ (normal cell line)
measured-parameter: pIC50
Bear in mind: pIC50 is minus log10 of a mol/L concentration; give just that figure.

Some solved cases for reference:
molecular-string: CCCCCCCCCC(=O)N(Cc1ccc(OC)c(OC)c1)c1cccc(B2OC(C)(C)C(C)(C)O2)c1
test-target: human foreskin BJ fibroblast cells (ATCC CRL-2522)
pIC50: 4.41
--
molecular-string: COc1ccc(CN(C(=O)CCCCCCCCB2OC(C)(C)C(C)(C)O2)c2ccccc2)cc1OC
test-target: human foreskin BJ fibroblast cells (ATCC CRL-2522)
pIC50: 3.95
--
molecular-string: CCCCCCCCCC(=O)N(Cc1ccc(OC)c(OC)c1)c1ccc(B2OC(C)(C)C(C)(C)O2)cc1
test-target: human foreskin BJ fibroblast cells (ATCC CRL-2522)
pIC50: 4.44

Next, consider the following molecule.
What value of pIC50 has been recorded for this entry: CCCCc1ccc(N(Cc2ccc(OC)c(OC)c2)C(=O)CCCCCCCCB2OC(C)(C)C(C)(C)O2)cc1 4.62

* * *

# IC50 values compiled below
- System: human breast adenocarcinoma cells (MCF7 ATCC HTB-22)
- method-notes: Cytotoxicity assay (Alamar blue), MCF7
- Format: cell-based
- test-parameters: Homo sapiens, MCF7; 72 h incubation; average ± SD; Inactive = inhibition above 300 μM; read-out: IC50 MCF7 (cancer cell line)
Form field: result (number plus unit)

molecule: CCCCc1ccc(N(Cc2ccc(OC)c(OC)c2)C(=O)CCCCCCCCB2OC(C)(C)C(C)(C)O2)cc1
value-reported: 3.4 µM
--
molecule: COc1ccc(CN(C(=O)CCCCB2OC(C)(C)C(C)(C)O2)c2ccccc2)cc1OC
value-reported: 108 µM
--
molecule: COc1cccc2c1C(=O)c1c(O)c3c(c(O)c1C2=O)C[C@@](O)(C(=O)CO)C[C@@H]3O[C@H]1C[C@H](N)[C@H](O)[C@H](C)O1 [Doxorubicin, reference compound]
value-reported: 0.2 µM
--
molecule: CCCCCCCCCC(=O)N(Cc1ccc(OC)c(OC)c1)c1ccc(B2OC(C)(C)C(C)(C)O2)cc1
value-reported: 24.1 µM
--
molecule: CCCCCC(=O)N(Cc1ccc(OC)c(OC)c1)c1cccc(B2OC(C)(C)C(C)(C)O2)c1
value-reported: 118 µM
--
molecule: CCCCCCCCCC(=O)N(Cc1ccc(OC)c(OC)c1)c1cccc(B2OC(C)(C)C(C)(C)O2)c1
value-reported: 35.7 µM

What value of IC50 has been recorded for this entry: COc1ccc(CN(C(=O)CCCCCCCCB2OC(C)(C)C(C)(C)O2)c2ccccc2)cc1OC 68.5 µM

* * *

- Test system: human colorectal carcinoma cells (HCT116 ATCC CCL-247)
- method-notes: Cytotoxicity assay (Alamar blue), HCT116
- Assay type: cell-based
- test-parameters: Homo sapiens, HCT-116; 72 h incubation; average ± SD; Inactive = inhibition above 300 μM; read-out: IC50 HCT (cancer cell line)
pIC50: −log10 of the molar value.
So basically: pIC50 at 4 or higher? That is criterion met. Lower than 4? That is criterion not met.

Solved cases below.
compound: CCCCCC(=O)N(Cc1ccc(OC)c(OC)c1)c1cccc(B2OC(C)(C)C(C)(C)O2)c1
cat: criterion not met
//
compound: CCCCc1ccc(N(Cc2ccc(OC)c(OC)c2)C(=O)CCCCCCCCB2OC(C)(C)C(C)(C)O2)cc1
cat: criterion met
//
compound: COc1cccc2c1C(=O)c1c(O)c3c(c(O)c1C2=O)C[C@@](O)(C(=O)CO)C[C@@H]3O[C@H]1C[C@H](N)[C@H](O)[C@H](C)O1 [Doxorubicin, reference compound]
cat: criterion met

Check if pIC50 >= 4 (inclusive). Item: CCCCCCCCCC(=O)N(Cc1ccc(OC)c(OC)c1)c1cccc(B2OC(C)(C)C(C)(C)O2)c1 criterion met

* * *

- System: human colorectal carcinoma cells (HCT116 ATCC CCL-247)
- method-notes: Cytotoxicity assay (Alamar blue), HCT116
- Format: cell-based
- test-parameters: Homo sapiens, HCT-116; 72 h incubation; average ± SD; Inactive = inhibition above 300 μM; read-out: IC50 HCT (cancer cell line)
measured-parameter: pIC50
Bear in mind: pIC50 is minus log10 of a mol/L concentration; give just that figure.

Some solved cases for reference:
molecular-string: COc1ccc(CN(C(=O)CCCCCCCCB2OC(C)(C)C(C)(C)O2)c2ccccc2)cc1OC
test-target: human colorectal carcinoma cells (HCT116 ATCC CCL-247)
measured-parameter: pIC50
value-reported: 4.10

molecular-string: COc1ccc(CN(C(=O)CCCCB2OC(C)(C)C(C)(C)O2)c2ccccc2)cc1OC
test-target: human colorectal carcinoma cells (HCT116 ATCC CCL-247)
measured-parameter: pIC50
value-reported: 3.90

Next, consider the following compound.
What value of pIC50 has been recorded for this entry: CCCCCC(=O)N(Cc1ccc(OC)c(OC)c1)c1ccc(B2OC(C)(C)C(C)(C)O2)cc1 3.93
